biological target: mouse class II IE^d, purified from A20 cells (mouse); experiment: assay standard, average IC50
Sequence (P01904 26-255, chain 1 of 2): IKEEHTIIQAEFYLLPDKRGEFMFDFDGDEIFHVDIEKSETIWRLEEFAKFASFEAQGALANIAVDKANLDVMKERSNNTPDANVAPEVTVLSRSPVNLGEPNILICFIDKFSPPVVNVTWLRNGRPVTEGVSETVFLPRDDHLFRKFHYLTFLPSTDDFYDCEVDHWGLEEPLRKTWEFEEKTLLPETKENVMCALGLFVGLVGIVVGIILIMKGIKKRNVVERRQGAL
Sequence (P01915 32-264, chain 2 of 2, further chain): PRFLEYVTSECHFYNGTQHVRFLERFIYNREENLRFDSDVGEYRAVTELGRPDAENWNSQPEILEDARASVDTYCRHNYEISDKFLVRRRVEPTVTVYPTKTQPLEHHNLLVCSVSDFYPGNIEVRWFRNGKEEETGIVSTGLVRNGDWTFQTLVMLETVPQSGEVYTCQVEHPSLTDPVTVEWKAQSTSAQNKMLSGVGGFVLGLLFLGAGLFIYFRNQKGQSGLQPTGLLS
Assay metric: pIC50
Scale note: pIC50 = -log10(concentration in M).

For reference, reported pIC50 for YLEDARRLKAIYEKKK (modifications not checked) [lambda rep 12-26] stands at 6.77
